# method: basal RPMI8226 viability, no added stimulus, profiling panel, cell-based, calcein-AM fluorescence, 48 h, PK04 Diversity Set (AID 1166);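 further: cells grown under basal conditions without added stimulus; test concentration not given here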
# condition: RPMI8226 myeloma viability, higher = more signal

molecule	z-score
[N-]=[N+]=NCc1ccccc1C[C@@]1(C(N)=O)N=C(c2ccc(OCCCO)cc2)O[C@@H]1c1ccccc1CN=[N+]=[N-]	-3.08
NC(=O)N1C(=O)C2C(C1=O)C1C=C(c3ccc(CO)cc3)C2C(C2CC2)N1Cc1sc2ccccc2c1Cl (centres undefined)	-3.61
COCCOC(=O)N1C(=O)[C@@]2(c3cc(C#Cc4ccc(OC)cc4)ccc31)[C@H](C(=O)NC[C@H](O)c1ccccc1)[C@H]1C(=O)O[C@H](c3ccccc3)[C@H](c3ccccc3)N1[C@@H]2c1ccc(O)cc1	-2.34
O=C1C2C=CC(C(O)c3cc(C(F)(F)F)cc(C(F)(F)F)c3)N(Nc3ccc([N+](=O)[O-])cc3)C2C(=O)N1c1ccccc1 (centres undefined)	-4.06
CO[C@H]1O[C@H](CO)[C@@H](OC(=O)c2ccc(Br)cc2)[C@@H]2OC(=O)[C@@H](Cc3ccc4ccccc4c3)C/C=C/C[C@H](Cc3ccc4ccccc4c3)C(=O)O[C@@H]12	-0.21
O=C1O[C@@H](c2ccccc2)[C@@H](c2ccccc2)N2[C@@H](c3ccccc3OCCO)[C@]3(C(=O)Nc4ccc(C#CCCO)cc43)[C@@H](C(=O)N3CCN(c4ncccn4)CC3)[C@H]12	-3.89
COC1(C)CN(Cc2ccccc2Br)[C@H](/C=C/c2ccccc2)[C@H](Cc2ccccc2)O1 (some centres undefined)	-0.0348
CO[C@H]1O[C@H](CO)[C@@H](OC(=O)Nc2ccccc2-c2ccccc2)[C@H](OC(=O)Nc2ccc3c(c2)OCO3)[C@@H]1OC(=O)Nc1ccc2c(c1)OCO2	-1.84
C=C(CCCC)C(=O)CC[C@@H](OC(=O)c1ccccc1-c1ccccc1C(=O)O)c1cccc(OCCO)c1	-3.91

====

# method: HepG2 liver cancer cell viability effects, profiling panel, resazurin fluorescence, 24 h, PK04 Diversity Set (AID 1172); further: test concentration not given here
# condition: higher = more signal
Reported z-score values are given for each entry in this list.
property measured: z-score

> print(dat)
                                    compound  observed.value
 1  CO[C@H]1O[C@H](CO)[C@@H](OC(=O)Nc2ccc(Oc3ccccc3)cc2)[C@H](OC(=O)Nc2ccccc2-c2ccccc2)[C@@H]1OC(=O)Nc1ccccc1-c1ccccc1           0.776
 2  C=C(C(=O)CC[C@H](OC(=O)c1cccnc1)c1ccc(CO)o1)C(C)C          -0.499
 3  Cc1ccc(C(C)CC(O)C2C=CC3C(=O)N(c4ccccc4)C(=O)C3N2Nc2ccc(C(C)C)cc2)o1 (configuration not stated)           -1.32
 4  COC(=O)[C@@]1(Cc2ccccc2)[C@H]2c3cc(C(=O)N4CCCC4)n(Cc4ccsc4Br)c3C[C@H]2CN1C(=O)c1ccccc1           -1.08
 5  CCCCN1CC=CC23O[C@@H]4C=CCOC(=O)[C@@H]4[C@H]2C(=O)N(CCCO)[C@@H]3C1=O (some centres not stated)           -1.09
 6  CCCN1C(=O)[C@]2(Cc3ccccc3)N=C(c3ccc(OCCCO)cc3)O[C@@H]2c2ccccc21           0.734
 7  Cc1ccc(F)cc1S(=O)(=O)N[C@@H]1CCN(Cc2ccc(OC(C)C)cc2)C1          -0.917
 8  COC(=O)Cn1c(C(=O)N2CCCC2)cc2c1C[C@H]1CN(C(=O)c3ccccc3)[C@@](Cc3ccc(F)cc3)(C(=O)OC)[C@@H]21           0.716
 9  COc1c(C)cc(-c2cc3c(c(-c4ccccc4)n2)[Si](C(C)C)(C(C)C)OC3)cc1C          0.0316
10  CN(C)CCCNC(=O)[C@@]1(C)c2ccccc2C(=O)N(Cc2cc(C(F)(F)F)cc(C(F)(F)F)c2)[C@H]1c1ccc(CO)cc1           -1.19
11  C=C(CCCC)/C(=C/C[C@@H](OC(C)=O)c1ccc(CO)o1)c1cc(C(=O)OC)ccc1OC          -0.345
12  O=C1OCC=C[C@H]2OC34C=CCN(Cn5nnc6ccccc65)C(=O)[C@H]3N(CCCCCCO)C(=O)[C@@H]4[C@@H]12 (some centres not stated)          -0.214

====

# assay target: NADPH oxidase 5 (Homo sapiens) (UniProt Q96PH1)
# Sequence (Q96PH1 whole entry, looked up): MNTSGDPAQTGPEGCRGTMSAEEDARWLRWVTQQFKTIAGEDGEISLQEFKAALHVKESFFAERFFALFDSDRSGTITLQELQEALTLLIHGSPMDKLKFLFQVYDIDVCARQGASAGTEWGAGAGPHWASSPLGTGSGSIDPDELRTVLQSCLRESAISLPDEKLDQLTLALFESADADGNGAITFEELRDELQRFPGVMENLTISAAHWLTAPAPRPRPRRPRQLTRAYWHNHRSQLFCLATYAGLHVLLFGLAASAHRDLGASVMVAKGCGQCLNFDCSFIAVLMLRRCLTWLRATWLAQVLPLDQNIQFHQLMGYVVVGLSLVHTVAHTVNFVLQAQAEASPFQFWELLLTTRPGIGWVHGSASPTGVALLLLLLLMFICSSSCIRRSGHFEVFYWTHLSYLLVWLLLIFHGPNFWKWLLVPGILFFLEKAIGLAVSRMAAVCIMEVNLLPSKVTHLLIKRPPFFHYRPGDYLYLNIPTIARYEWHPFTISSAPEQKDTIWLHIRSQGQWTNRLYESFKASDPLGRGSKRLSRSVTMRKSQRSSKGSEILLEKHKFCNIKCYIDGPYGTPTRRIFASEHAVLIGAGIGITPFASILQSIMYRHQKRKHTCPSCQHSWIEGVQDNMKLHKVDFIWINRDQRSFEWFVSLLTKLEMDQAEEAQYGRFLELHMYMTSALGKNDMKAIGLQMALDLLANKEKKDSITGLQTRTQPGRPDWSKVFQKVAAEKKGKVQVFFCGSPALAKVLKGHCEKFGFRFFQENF
# method: NOX5-dependent H2O2 signal modulators, primary screen, NOX inhibitor project, cell-based, HEK293-NOX5, Amplex Red fluorescence (AID 1161)
# condition: HEK293-NOX5, ionomycin, 45 min, higher = more signal
Classify by z-score. Ranges: c1 (below 0.01), c2 (0.01 to below 1), c3 (1 or more)

compound	group
O=C1c2ccccc2[C@](Cc2ccccc2I)(C(=O)NCCN2CCOCC2)[C@H](c2ccc(CO)cc2)N1Cc1ccccc1	c2
COc1cc2c(cc1OC)CN(C(=O)[C@@H]1[C@H]3C(=O)O[C@H](c4ccccc4)[C@H](c4ccccc4)N3[C@H](c3ccccc3OCCO)[C@@]13C(=O)Nc1ccc(C#CC4(O)CCCCCC4)cc13)CC2	c3
CCOC(=O)C[C@H]1[C@H](OC(=O)c2ccccc2-c2ccccc2)[C@@H](NC(=O)c2ccc3ccccc3n2)c2cc(OCCCO)ccc2N1C(=O)c1ccc2ccccc2n1	c3
C[C@]1(C(=O)NCCN2CCOCC2)c2ccccc2C(=O)N(Cc2ccc(OC(F)(F)F)cc2)[C@H]1c1ccc(CO)cc1	c2
COc1ccc([Si](C)(C)[C@H]2[C@H](CCn3cc([C@H](O)c4ccccc4)nn3)O[C@@]3(C(=O)N(Cc4ccc(N5CCC5=O)cc4)c4ccccc43)[C@@H]2C)cc1	c3
O=C(O)[C@]1(Cc2ccccc2)N=C(c2ccc(OCCCO)cc2)O[C@@H]1c1ccccc1	c2
CC(C)(C)OC(=O)CC[C@]1(C(=O)NCCN2CCOCC2)N=C(c2ccc(OCCCO)cc2)O[C@H]1c1ccccc1N=[N+]=[N-]	c1
C=C(C(=O)CC[C@H](OC(=O)c1cccnc1)c1cccc(OCCO)c1)C(C)C	c1
O=C1O[C@@H](c2ccccc2)[C@@H](c2ccccc2)N2[C@@H](c3ccccc3OCCO)[C@]3(C(=O)Nc4ccc(C#CCCO)cc43)[C@@H](C(=O)Nc3nc4ccccc4s3)[C@H]12	c3
CCOC(=O)[C@H]1C/C=C/C[C@H](C(=O)OCC)C(=O)O[C@H]2[C@@H](OC)O[C@H](CO)[C@@H](OC(=O)CCc3ccccc3)[C@@H]2OC1=O	c2
COCCOC(=O)N1C(=O)[C@@]2(c3cc(C#Cc4ccc(OC)cc4)ccc31)[C@H](C(=O)N1CCN(c3ncccn3)CC1)[C@H]1C(=O)O[C@H](c3ccccc3)[C@H](c3ccccc3)N1[C@@H]2c1ccccc1OCCO	c3
C[C@]1(C(=O)O)c2ccccc2C(=O)N(Cc2ccccc2)[C@H]1c1ccc(CO)cc1	c2
COCCOC(=O)N1C(=O)[C@@]2(c3cc(C#CC4(O)CCCCCC4)ccc31)[C@H](C(N)=O)[C@H]1C(=O)O[C@H](c3ccccc3)[C@H](c3ccccc3)N1[C@@H]2c1ccccc1OCCO	c2
O=C1C2C=CC(C(O)c3cc(C(F)(F)F)cc(C(F)(F)F)c3)N(Nc3ccc([N+](=O)[O-])cc3)C2C(=O)N1c1ccccc1 (centres undefined)	c1
CCCCC(=C=CC[C@@H](O)c1ccc(OCCO)cc1)C[C@@H](O)COCc1ccccc1	c1
CC(C)C[C@@H]1NC(=O)[C@H]2C[C@@H](C(=O)NCCCCCC[N+](C)(C)C)[C@@H](c3cccc(OCCO)c3)N2C1=O	c3
CC(C)c1ccc(NN2C(C(O)c3ccco3)C=CC3C(=O)N(c4ccccc4)C(=O)C32)cc1 (centres undefined)	c1
CCCNC(=O)[C@@]1(c2ccc([N+](=O)[O-])cc2)CC(=O)N(C2CCCCC2)[C@@H]1c1ccc(CO)cc1I	c3
C=CCNC(=O)[C@@H]1[C@H]2C(=O)O[C@H](c3ccccc3)[C@H](c3ccccc3)N2[C@H](c2ccc(OCCO)cc2)[C@@]12C(=O)N(C(=O)OCCOC)c1ccc(C#CC3=CCCCC3)cc12	c3
O=C1OCCC=C[C@H]2OC34C=CCN(c5ccc(Cl)cc5)C(=O)[C@H]3N(CCCCCO)C(=O)[C@@H]4C12 (some centres undefined)	c3
CCCCN1CC=CC23O[C@@H]4C=CCOC(=O)[C@@H]4[C@H]2C(=O)N(C(C)CO)[C@@H]3C1=O (some centres undefined)	c3
[N-]=[N+]=NCc1ccccc1C[C@@]1(C(=O)NCCN2CCOCC2)N=C(c2ccc(OCCCO)cc2)O[C@@H]1c1ccccc1N=[N+]=[N-]	c1
CN(C)CCCNC(=O)[C@@]1(C)c2ccccc2C(=O)N(Cc2cc(C(F)(F)F)cc(C(F)(F)F)c2)[C@H]1c1ccc(CO)cc1	c1
CC(C)NC(=O)[C@@]1(C)c2ccccc2C(=O)N(C(C)C)[C@H]1c1ccc(CO)cc1	c2
